Assay: binders from COS7 lysate, DM2A8 probe, primary screen, torsin A project, cell lysate, small-molecule microarray, fluorescence 635/667 (AID 1065)
Conditions: higher = more signal, COS7 lysate expressing mutant human TOR1A
measured metric: composite z-score

{"compound": "CC(CCN1CCc2nc(-c3ccccc3)c(-c3ccccc3)cc2C1)=NOC[C@@H](O)[C@H]1O[C@@H]2OC(C)(C)O[C@@H]2[C@H]1O", "value reported": 0.59}
{"compound": "COc1cccc([C@H]2Oc3ccc(OC)cc3C(=NOC[C@@H](C)[C@H](OCc3ccccc3)C(C)C)[C@@H]2O)c1", "value reported": 0.435}
{"compound": "COC(=O)CC=C[C@@H](C)[C@@H](C=NO[C@H](C)c1cn([C@H](CO)Cc2ccccc2)nn1)NS(=O)(=O)c1ccc(C)cc1", "value reported": 2.12}
{"compound": "CCN1C(=O)[C@H]2[C@H]3[C@H](O)[C@H](O)CC(=NOCC(C)C)[C@@H]3CC[C@H]2C1=O", "value reported": 0.217}
{"compound": "CCOC(=O)[C@H](CC(C)C)NC(=O)CCC1CC(OC(=O)NCc2cccc3ccccc23)CC2(CCCC(COC(=O)NCCC(C)C)O2)O1 (stereo not given in full)", "value reported": 0.141}

* * *

Target: Follistatin-related protein 3 (Homo sapiens)
Experiment: FSTL3 binders on small-molecule microarrays, primary screen, biochemical, small-molecule microarray, 635 nm fluorescence (AID 1105);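 further: score merges emission near 667 nm and signal to noise per printed spot across three slides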
Conditions: FSTL3 binding, higher = more signal
# composite z-score per record follows

{"molecule": "CC(C)=NO[C@H](C)c1cn([C@H](CO)Cc2ccccc2)nn1", "composite z-score": -0.275}
{"molecule": "COC(=O)[C@H](C)NC(=O)CCC1CC(OC(=O)NCc2ccc3c(c2)OCO3)CC2(CCCC(COC(=O)NCC(c3ccccc3)c3ccccc3)O2)O1 (stereo partly specified)", "composite z-score": 1.2}
{"molecule": "CCOC(=O)[C@H](CC(C)C)NC(=O)CCC1CC(OC(=O)NCc2cccc3ccccc23)CC2(CCCC(COC(=O)NCc3cccc(C(F)(F)F)c3)O2)O1 (stereo partly specified)", "composite z-score": 0.346}
{"molecule": "CCCNC(=O)OC[C@H]1O[C@H](CCON=Cc2ccc(C(=O)N3[C@H](c4ccc(C)cc4)[C@@H](C)CC[C@H]3C(=O)OC)cc2)C=C[C@@H]1Oc1ccc(OC)cc1", "composite z-score": 0.355}
{"molecule": "CCOC(=O)CCN1C(=O)[C@H]2[C@H]3[C@H](O)[C@H](O)CC(=NOCc4ccccc4)[C@H]3CC[C@H]2C1=O", "composite z-score": -0.828}
{"molecule": "CON=C(C)CCC(=O)OC[C@H]1O[C@H](c2ccccc2)C=C[C@@H]1Oc1ccc(OC)cc1", "composite z-score": 0.189}

* * *

System: Sonic hedgehog protein (Shh)
Assay: small-molecule binders of Shh protein, primary screen, biochemical, small-molecule microarray, 635/667 nm fluorescence (AID 1151);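 further: Shh protein binding to compounds spotted on small-molecule microarray slides; score combines spot fluorescence intensity with signal-to-noise across triplicate slides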
Details: small-molecule microarray binding, 635 nm fluorescence; higher = more signal
measured metric: composite z-score

{"compound": "COc1cccc([C@H]2Oc3ccc(OC)cc3C(=NO[C@@H](C)c3cn([C@H](CO)Cc4ccccc4)nn3)[C@@H]2O)c1", "value reported": -0.243}
{"compound": "O=C1[C@H]2[C@H]3[C@H](O)[C@H](O)CC(=NOC[C@@H](O)COCc4ccco4)[C@H]3CC[C@H]2C(=O)N1C[C@@H]1CCCO1", "value reported": 0.793}
{"compound": "CCOC(=O)[C@H](CC(C)C)NC(=O)CCC1CC(OC(=O)NCc2cccc3ccccc23)CC2(CCCC(COC(=O)NCCOC)O2)O1 (stereo partly drawn)", "value reported": 1.03}

* * *

Assay: small-molecule microarray binders of probe aNog, primary screen, biochemical, biotinylated probe, 635/667 nm fluorescence (AID 1115);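 further: probe is biotinylated aNog protein used at 0.15 µg/mL for 1 h at 4 C; z-score combines 667 nm fluorescence of each spot with its signal to noise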
Conditions: higher = more signal
measured metric: composite z-score

{"compound": "C#CCCCON=C1C[C@@H](O)[C@@H](O)[C@@H]2[C@@H]3C(=O)N(CCC(=O)OCC)C(=O)[C@@H]3CC[C@H]12", "value reported": -0.253}
{"compound": "CCN1C(=O)[C@@H]2[C@H]3C(=CC[C@@H]2C1=O)C1(OCCCO1)[C@H]1O[C@H]1[C@H]3O", "value reported": 0.194}
{"compound": "Cc1cc2c(nc1C)CCCCN2CC(C)ON=C[C@@H](C)[C@H](OCc1ccccc1)C(C)C (stereo partly drawn)", "value reported": -0.415}

* * *

Experiment: binders of probe aFSTL3 on microarray, primary screen, stem cell growth factor project, biochemical, small-molecule microarray, fluorescence 635/667 (AID 1064);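 further: measures binding of the biotinylated anti-FSTL3 antibody to printed compounds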
Conditions: higher = more signal
measured metric: composite z-score

{"molecule": "CO[C@H]1COC(=O)CCC[C@@H](C)[C@H](OC)COC(=O)[C@@H](C)NC(=O)CC=C[C@@H]1C", "measured metric": "composite z-score", "value reported": -0.467}
{"molecule": "O=C1C[C@@H](O)[C@@H](O)[C@@H]2[C@@H]3C(=O)N(Cc4ccccc4)C(=O)[C@@H]3CC[C@@H]12", "measured metric": "composite z-score", "value reported": -0.281}
{"molecule": "CSCC[C@@H]1NC(=O)CC=C[C@@H](C)COC(=O)[C@@H](C)COC1=O", "measured metric": "composite z-score", "value reported": -0.324}
{"molecule": "Cc1ccc(S(=O)(=O)n2c3ccccc3c3nnc(C(=O)c4ccccc4)nc32)cc1", "measured metric": "composite z-score", "value reported": -0.474}
{"molecule": "C=C(C)C(=O)OCC1CN2[C@@H](CC[C@@H](C)[C@@H]2c2ccc(Br)cc2)C(=O)O1 (stereo not given in full)", "measured metric": "composite z-score", "value reported": -0.393}
{"molecule": "CCOC(=O)[C@H](CC(C)C)NC(=O)CCC1CC(OC(=O)NCc2cccc3ccccc23)CC2(CCCC(COC(=O)NCCc3ccc(Cl)cc3)O2)O1 (stereo not given in full)", "measured metric": "composite z-score", "value reported": -0.318}
{"molecule": "CCOC(=O)[C@H](CC(C)C)NC(=O)CCC1CC(OC(=O)NCCc2ccc(F)cc2)CC2(CCCC(COC(=O)NCCOc3ccccc3)O2)O1 (stereo not given in full)", "measured metric": "composite z-score", "value reported": -0.715}
{"molecule": "C=CC1=C[C@H](O)[C@@H]2O[C@@H]2C12OCCCO2", "measured metric": "composite z-score", "value reported": -0.0605}
{"molecule": "CCOC(=O)[C@H](CC(C)C)NC(=O)CCC1CC(OC(=O)NCCc2ccc(F)cc2)CC2(CCCC(COC(=O)NCC3CCCCC3)O2)O1 (stereo not given in full)", "measured metric": "composite z-score", "value reported": -0.595}
{"molecule": "COC(=O)CC=C[C@H](C)[C@@H](OCc1cccc(Br)c1)[C@@H](C)[C@H](OC)C1CCCCC1", "measured metric": "composite z-score", "value reported": -0.191}

* * *

# z-score per record follows
Assay: basal RPMI8226 viability, no added stimulus, profiling panel, cell-based, calcein-AM fluorescence, 48 h, PK04 Diversity Set (AID 1166);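 further: cells grown under basal conditions without added stimulus; test concentration not given here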
Conditions: RPMI8226 myeloma viability, higher = more signal
measured metric: z-score

{"compound": "CCOC(=O)[C@H](Cc1ccccc1)NC(=O)CCC1CC(OC(=O)NCCc2ccc(F)cc2)CC2(CCCC(COC(=O)NCCOC)O2)O1 (stereo partly drawn)", "value reported": -1.7}
{"compound": "CCCNC(=O)OC[C@H]1O[C@H](CCON=C(C)CCN2CCCc3nc(C)c(C)cc32)C=C[C@@H]1Oc1ccc(OC)cc1", "value reported": -1.57}
{"compound": "CC(C)CON=C1[C@H]2CCn3c(=O)n(Cc4cc5c(cc4Cl)OCO5)c(=O)n3[C@H]2[C@H](O)[C@@H]2O[C@H]12", "value reported": -0.62}

* * *

Target: Calmodulin-1 (Homo sapiens)
Assay: calcium-bound CALM1 binders on microarrays, profiling panel, artefact control for SMM control-protein annotation, biochemical, small-molecule microarray, Cy5-labelled CALM1, plus calcium (AID 1112);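 further: score merges spot fluorescence with signal to noise from triplicate slides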
Details: Cy5-CALM1 binding fluorescence, higher = more signal
Label t when composite z-score is at or above -0.6; otherwise label f.

{"compound": "O=c1n(-c2ccccc2)c(=O)n2n1CC[C@@H]1C(=NOCc3ccccc3)[C@H]3O[C@H]3[C@@H](O)[C@@H]12", "classification": "f"}
{"compound": "CCOC(=O)NN=C1C[C@@H](O)[C@@H](O)[C@@H]2[C@@H]3C(=O)N(c4cccc(Oc5ccccc5)c4)C(=O)[C@@H]3CC[C@H]12", "classification": "t"}
{"compound": "COC(=O)CC=C[C@@H](C)[C@H](OCc1cccc(-c2ccccc2)c1)C1CCCCC1", "classification": "t"}
{"compound": "O=C(C=Cc1ccc2c(c1)OCO2)c1ccc(F)cc1", "classification": "f"}
{"compound": "Cc1ccc(S(=O)(=O)N[C@@H]2COC(=O)[C@@H](C)COC(=O)CC=C[C@H]2C)cc1", "classification": "t"}
{"compound": "O=c1n(Cc2cc3c(cc2Cl)OCO3)c(=O)n2n1CC[C@@H]1C(=NOC[C@@H](O)COCc3ccco3)[C@H]3O[C@H]3[C@@H](O)[C@@H]12", "classification": "t"}
{"compound": "CC(C)(C)N1C(=O)[C@H]2[C@H]3[C@H](O)[C@H](O)CC(=O)[C@@H]3CC[C@H]2C1=O", "classification": "t"}
{"compound": "CC(=O)Nc1ccc([C@@H]2N[C@H](C(=O)O)CC[C@H]2C)cc1", "classification": "f"}
{"compound": "COc1ccc(O[C@@H]2[C@H](O)CO[C@@H]2C=Cc2ccccc2)cc1", "classification": "f"}
{"compound": "COC(=O)[C@H](C)NC(=O)CCC1CC(OC(=O)NCCc2ccc(F)cc2)CC2(CCCC(COC(=O)NCc3cccc(C(F)(F)F)c3)O2)O1 (stereo not given in full)", "classification": "t"}
{"compound": "CCOC(=O)[C@H](CC(C)C)NC(=O)CCC1CC(OC(=O)NCc2cccc3ccccc23)CC2(CCCC(COC(=O)NCc3cccc(C(F)(F)F)c3)O2)O1 (stereo not given in full)", "classification": "t"}
{"compound": "CO[C@@H]1COC(=O)[C@H](CCSC)NC(=O)CC=C[C@@H](C)COC(=O)CCC[C@H]1C", "classification": "f"}
{"compound": "CC(=O)O[C@H]1C2=CO[C@H](C)[C@H]3[C@H]4C5=C([C@H](O)[C@H]6O[C@H]6C5=O)[C@H](OC4C)[C@@]23C(=O)[C@@H]2O[C@@H]21 (stereo not given in full)", "classification": "f"}
{"compound": "CCCCC#C[C@@H]1C=C[C@H](Oc2cc(OC)c(OC)c(OC)c2)[C@@H](COC(=O)OCC)O1", "classification": "f"}
{"compound": "CC(C)CCN1CCc2nc(COc3ccccc3)c3c(c2C1)CO[C@@H](C)C3", "classification": "t"}
{"compound": "CC(C)=CCCC(C)=CCON=C1C[C@@H](O)[C@@H](O)[C@@H]2[C@@H]3C(=O)N(Cc4ccccc4)C(=O)[C@@H]3CC[C@@H]12", "classification": "f"}
{"compound": "O=C1[C@H]2[C@H]3[C@H](O)[C@H](O)CC(=NOCc4ccccc4)[C@@H]3CC[C@H]2C(=O)N1Cc1ccc2c(c1)OCO2", "classification": "t"}
{"compound": "CCOC(=O)[C@H](CC(C)C)NC(=O)CCC1CC(OC(=O)NCc2cccc3ccccc23)CC2(CCCC(COC(=O)NCCC(C)C)O2)O1 (stereo not given in full)", "classification": "f"}
{"compound": "C#CCCCON=C1C[C@@H](O)[C@@H](O)[C@@H]2[C@@H]3C(=O)N(CCC(=O)OCC)C(=O)[C@@H]3CC[C@H]12", "classification": "t"}
{"compound": "COC(=O)CC=C[C@@H](C)[C@@H](C=NOC[C@@H](O)[C@H]1O[C@@H]2OC(C)(C)O[C@@H]2[C@H]1O)NS(=O)(=O)c1ccc(C)cc1", "classification": "f"}
